The reader will find reported GI50 values listed item by item below.
- Test system: OVCAR-4
- Assay summary: NCI tumour cell line growth inhibition, 48 h
Activity calls are given as the source filed them. Cut-off read from the data, not from the text of the source: active = GI50 up to about 1.1 µM and inactive = higher.

| Compound | GI50 |
| --- | --- |
| CC(C)(C)c1ccc(/C=N/NC(=O)CSCC(=O)N/N=C/c2ccc(C(C)(C)C)cc2)cc1 | 3.88 µM (inactive) |
| O=C(NCCCN(CCCCN(CCCNC(=O)C(F)(F)F)Cc1ccc2ccccc2c1)Cc1ccc2ccccc2c1)C(F)(F)F | 2.62 µM (inactive) |
| COc1cc2c(c(OC)c1)C1(CC(CC#N)C2)SCCS1 (stereo not given) | > 100 µM (inactive) |
| CC[C@]12C=CCN3CC[C@@]4(c5cc(Br)c(OC)cc5N(C)[C@H]4[C@@](O)(C(=O)NN)[C@@H]1O)[C@@H]32 | 96.6 µM (inactive) |
| C=CCOc1ccc(C(=N/NC(=O)c2ccccc2)/N=N/c2ccc([N+](=O)[O-])cc2)cc1OC | > 100 µM (inactive) |

====

- Tested on: LOX IMVI
- Assay summary: NCI tumour cell line growth inhibition, 48 h
Activity calls are given as the source filed them. Rule as the data show it: active = GI50 up to about 1.1 µM and inactive = higher.
The reader will find reported GI50 values listed item by item below.
Measure: GI50

| Input smiles | Measure | Test result |
| --- | --- | --- |
| COc1cc(O)cc(O)c1C(=O)CC(Cl)(Cl)Cl | GI50 | > 100 µM (inactive) |
| COc1cc(Nc2cnc3ccc(C(F)(F)F)cc3n2)cc(OC)c1OC | GI50 | 4.02 µM (inactive) |
| O=C(NCCCN(CCCCN(CCCNC(=O)C(F)(F)F)Cc1ccc2ccccc2c1)Cc1ccc2ccccc2c1)C(F)(F)F | GI50 | 4.36 µM (inactive) |
| Cc1cc(N(CCC#N)S(=O)(=O)c2ccccc2)ccc1/C=C1\N=C(c2ccc(Cl)cc2)OC1=O | GI50 | > 100 µM (inactive) |
| CCOC(=O)c1c(SC(=O)C(C)(C)Oc2ccc(Cl)cc2)n(-c2ccccc2)c(=S)n(-c2ccccc2)c1=O | GI50 | 31.8 µM (inactive) |

====

- System: MCF7
- Assay summary: NCI tumour cell line growth inhibition, 48 h
The source made the active and inactive calls. No stated cut-off is given here; in the data, active = GI50 up to about 1.1 µM and inactive = higher.
The reader will find reported GI50 values listed item by item below.

| Compound | GI50 |
| --- | --- |
| C=C1CC2[C@H](C)C(=O)CCC2(C)C2=C1C1CCC(C(C)CCC(=C)C(C)C(=O)O)C1(C)CC2=O (stereo not given in full) | 83.9 µM (inactive) |
| O=C1CC(c2ccc(Cl)cc2)C2(C(=O)NC(=O)NC2=O)C(c2ccc(Cl)cc2)C1 (stereo not given) | 22.3 µM (inactive) |
| CCC1(CC)C(=O)N(C(=O)c2ccccc2)N(C(=O)c2ccc(Cl)cc2)C1=O | > 75 µM (inactive) |
| N#CC(C#N)=Cn1c(=S)[nH]c2ccc([N+](=O)[O-])cc21 | > 100 µM (inactive) |
| N#CC(c1ccccc1)N(CCc1ccccc1)C(=O)Oc1ccccc1 (stereo not given) | > 100 µM (inactive) |
| CC1=C(C(=O)OCCO[N+](=O)[O-])C(c2cccc([N+](=O)[O-])c2)C(C(=O)OC(C)C)=C(C)N1 (stereo not given) | 19.6 µM (inactive) |
| Cc1cccc(C)c1NC(=O)/C(CC(=O)CC(c1ccccc1)c1c(O)c2ccccc2oc1=O)=N/O (stereo not given) | > 100 µM (inactive) |
| N#CC(c1ccnc(Cl)n1)c1nc2ccccc2s1 (stereo not given) | 3.68 µM (inactive) |
| CCCCCCCCCCOCCOCCOCCOCCCCC(O)CCCCCCCC1=C[C@H](C)OC1=O (stereo not given in full) | 5.62 µM (inactive) |
| C[C@H]1C2Cc3cc(N)ccc3[C@@]1(C)CCN2CCc1ccccc1 | 25.2 µM (inactive) |
